Measured protein stability index, listed per entry.
B1: ANKRD9 (parent)
chain: LLEDMRASEAFHWDERGRAAAYSP

Variants of: B1
assay.name: protein stability index of a GFP-peptide fusion (GPS, HEK-293T) (PSI 1-6); higher = more stable;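 further: lentivirally expressed fusions sorted by FACS into six bins by GFP to DsRed ratio, PSI derived from sequencing read proportions per bin multiplied by bin number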
test.settings: c terminus: a fixed tail appended

- sequence.text: "LLEDMRAYEAFHWDERGRAAAYSP"
  protein stability index: 2.7
- sequence.text: "PLEDMRASEAFHWDERGRAAAYSP"
  protein stability index: 4.77
- sequence.text: "LLEDMRASLAFHWDERGRAAAYSP"
  protein stability index: 1.89
- sequence.text: "LLEDMRASEAFHWDERGRPAAYSP"
  protein stability index: 2.31
- sequence.text: "LLEDMRASEAFHWDEHGRAAAYSP"
  protein stability index: 2.44
- sequence.text: "LLEDMRASEAFHWRERGRAAAYSP"
  protein stability index: 2.29
- sequence.text: "LLEDMDASEAFHWDERGRAAAYSP"
  protein stability index: 4.03
- sequence.text: "LLEDMRASEAFHWDERGRAAAYIP"
  protein stability index: 2.61
- sequence.text: "LLEDMRASEAFHWDERGRAAARSP"
  protein stability index: 1.81
- sequence.text: "LLEDMRASEAFHWDFRGRAAAYSP"
  protein stability index: 2.95
- sequence.text: "LLEDMRASEAFHWDERGRAAAYAP"
  protein stability index: 2.09
- sequence.text: "LLEDMRASEAEHWDERGRAAAYSP"
  protein stability index: 1.74
- sequence.text: "LLEDMRASEAFHWDERGREAAYSP"
  protein stability index: 1.55
- sequence.text: "LLEDMRWSEAFHWDERGRAAAYSP"
  protein stability index: 2.3
- sequence.text: "LLESMRASEAFHWDERGRAAAYSP"
  protein stability index: 2.23
- sequence.text: "LLEDMRASEAFHWDEWGRAAAYSP"
  protein stability index: 1.58
- sequence.text: "LLEDMRASEAFKWDERGRAAAYSP"
  protein stability index: 2.5
- sequence.text: "LLEDMRASEGFHWDERGRAAAYSP"
  protein stability index: 2.46
- sequence.text: "LLEHMRASEAFHWDERGRAAAYSP"
  protein stability index: 2.69
- sequence.text: "LLEPMRASEAFHWDERGRAAAYSP"
  protein stability index: 3.91
- sequence.text: "LLEDMRASYAFHWDERGRAAAYSP"
  protein stability index: 2.48
- sequence.text: "LLEDMRASEAFVWDERGRAAAYSP"
  protein stability index: 1.34

Source of measurements: the supplement of paper PMC10567573
